The measured values listed here are drawn from the DeepSol protein solubility set.

# EXPERIMENT: soluble on expression in E. coli; label from the status in PepcDB or PDB records
READOUT TYPE: soluble on expression in E. coli

These recorded examples may help you get a feel for the data.
MSEGITDIEESQIQTNYDKVVYKFDDMELDENLLRGVFGYGFEEPSAIQQRAIMPIIEGHDVLAQAQSGTGKTGTFSIAALQRIDTSVKAPQALMLAPTRELALQIQKVVMALAFHMDIKVHACIGGTSFVEDAEGLRDAQIVVGTPGRVFDNIQRRRFRTDKIKMFILDEADEMLSSGFKEQIYQIFTLLPPTTQVVLLSATMPNDVLEVTTKFMRNPVRILVKKDELTLEGIKQFYVNVEEEEYKYECLTDLYDSISVTQAVIFCNTRRKVEELTTKLRNDKFTVSAIYSDLPQQERDTIMKEFRSGSSRILISTDLLARGIDVQQVSLVINYDLPANKENYIHRIGRGGRFGRKGVAINFVTNEDVGAMRELEKFYSTQIEELPSDIATLLN soluble
MTKKDKKEVKVQTVTTEDGETVKVFEDLQGFETFIANETEDDDFDHLHCKLNYYPPFVLHESHEDPEKISDAANSHSKKFVRHLHQHIEKHLLKDIKQAVRKPELKFHEKSKEETFDKITWHYGEETEYHGRPFKIDVQVVCTHEDAMVFVDYKTHPVGAN soluble
MAEDYKLIDNEEKHRYEFQIDDKIAKIDYIKSNNGEIYLVHTEVPASLGGRGVGSQLAEKTLADIERQGLRLVPLCPFVAGYIHKHPEWKRIVMRGIHIK not soluble
MSLSEGPKKAGVLGSPIAHSRSPQLHLAAYRALGLHDWTYERIECGAAELPVVVGGFGPEWVGVSVTMPGKFAALRFADERTARADLVGSANTLVRTPHGWRADNTDIDGVAGALGAAAGHALVLGSGGTAPAAVVGLAELGVTDITVVARNSDKAARLVDLGTRVGVATRFCAFDSGGLADAVAAAEVLVSTIPAEVAAGYAGTLAAIPVLLDAIYDPWPTPLAAAVGSAGGRVISGLQMLLHQAFAQVEQFTGLPAPREAMTCALAALDEGHHHHHH soluble

# soluble on expression in E. coli of MAYNLKEVAKKPERLTGGHRMCAGCGAPIVVRQVLKALKPEDHAVISAATGCLEVSTFIYPYTAWKDSFIHSAFENTGATISGAEAAYKVLKKKGKIEGETKFIAFGGDGGTYDIGLQALSGAMERGHDMVYVCYDNGAYMNTGIQRSSATPKYADTTTSPVGKKIPGKMQPRKDLTEVLVNHRIPYVAQTAPFGNMKDLYEKAEKAIYTPGPAFLNVLAPCPRGWRYNTPDLMELSKLAVETCFWPLYEVIDGKYIINYKPKEKVPVKEFLKLQGRFKHLFKAGNEYMLEEIQKEVDLRWERLLKLAGEA = not soluble

The measured soluble on expression in E. coli associated with SNAMIVGIGIDIIELNRIEKMLDGKLKFMERILTENERNVAKGLKGSRLTEFVAGRFAAKEAYSKAVGTGIGKEVSFLDIEVRNDDRGKPILITSTEHIVHLSISHSKEFAVAQVVLESSSS reads soluble

MANSMIFKAEGNQLIAERVFDAPRELVFKMFTEAEHLKNWWGPRGWDLTVCNIDFRPGGSWHFCMKCVDENQGDFYGYESWGKALYREIVDGEKIVYVDYFSDSEGNLSEEMPAAEITLTFIDLGGKTKIVNQVEYPSAEELQKGLDMGMEQGFTETWDRLVEYLQDIQLEHHHHHH yielded soluble on expression in E. coli of not soluble

Per the records, this sequence ( MTSEKLSAACHCGSVVFTVQLSDGFHTARRCNCSFCRMRGAVAVSAPLSGIKVLKGQDKLTEYRFNTGKAVHFFCSVCGIYTFHQRRSNPDQYGVNVACIENVSPFDFACVEVNDGVTHPSDGGSSGVVGYLRYEPKKSPPVETGGKNILEHHHHHH ) has soluble on expression in E. coli equal to soluble

// soluble on expression in E. coli lookup, sequence = TSLFAQEIRLSKRHEEIVSQRLMLLQQMENKLGDQHTEKASQLQTVETAFKRNLSLLKDIEAAEKSLQTRIHPLPRPEVVSLETRYWASV , result: soluble

Noted for MGSDKIHHHHHHMAGVSPLSNRWSKQVLSNFEQAASTYNSQAQLQRAVAWRLARQCARQHIPAGFWVDLGSGTGLMADALEACNPHQAVLRVDGCHEMLKHHHHSSQTLLWDLNLGVPSWPQLPSLLASSFALHWLINPLERLHEWMAALTPEGWLALALPVEGSFPQWHQAAATAGVSCTALPFPSQASLLDVLSSNNIRHQQLHQFTQQSPEVFQLLKPMRQIGAQASPCSTMGVGNWRHLKQAWPRCQNSGDAQLTWLIQLLLIQR : its soluble on expression in E. coli reads not soluble

Record MGSDKIHHHHHHGKKKPPPPKSASKMGPPPPAPAPPTAPEAAPAAPTPDAAAAAPAEGEKKDGEKKSEKKDGDKKEEEKKDEEKKDGDKKEDDKKDEKKDEDKKDEKKDADEKKDEEKKDDKKDEKKDEKKDEKKDEKKEKSKKSKKSSKSKKSKKSKREKKDEEKKEDDKKEDDKKDDKKEDEKKDDDKKDDEKNYFW . Reported soluble on expression in E. coli: not soluble

The recorded soluble on expression in E. coli for entry MLVTGLEILRKARAEGYGVGAFNTNNMEFTQAILEAAEEMKSPVILALSEGAMKYGGRALTRMVVALAQEARVPVAVHLDHGSSYESVLKALREGFTSVMIDKSHEDFETNVRETKRVVEAAHAVGVTVEAELGRLAGIEEHVAVDEKDALLTNPEEARIFMERTGADYLAVAIGTSHGAYKGKGRPFIDHPRLARIAELVPAPLVLHGASAVPQELVERFRAAGGEIGEASGIHPEDIKKAISLGIAKINTDTDLRLAFTALVRETLGKNPKEFDPRKYLGPAREAVKEVVKSRMELFGSVGRA equals soluble

Reported soluble on expression in E. coli ( MDKPILKDSMKLFEALGTIKSRSMFGGFGLFADETMFALVVNNQLHIRADQQTSSDFETQGLKPYVYKKRGFPVVTKYYAISSELWESSDRLIEVAKKSLENAKLEKEQQASTKPNRLKDLPNLRLATERMLKKAGIDSVAQLEEEGALSAYKAIRDTHSTTVSLELLWALEGAINGTHWSVVPQSRREELMNGLS ) = soluble

###

# EXPERIMENT: soluble on expression in E. coli; label from the status in PepcDB or PDB records
READOUT TYPE: soluble on expression in E. coli

VALTVYYPPRVVSLEEPELRLEHCIEFVVRGNPPPTLHWLHNGQPLRESKIIHVEYYQEGEISEGCLLFNKPTHYNNGNYTLIAKNPLGTANQTINGHFLKEPFPVDEVSPTPPITVT soluble
RTDTIMVLHIPSSGKATLMSIPRDSYVEIPGYGMDKINASFTYGGAPLLTQTVENATGLRINHYAEIGMGGLANVVDAVGGIEVCPAEPIDDPLAGLNIAAGCQKVDGPTALGYVRTRHTALGDLDRVQRQREFFAALVNKVTS not soluble
MRAEVKEICKALHLAYIADRFEEVRFETKEQFLRDVLALELSCCQEAKQARLIKKAKFRELKWLKDYEWSGHIHWPATTSREELCDLRFLERKQNVLLLGSPGTGKTHLATALGIQACQQGHEVRFFRVADLVAQLEEALKNGTLGRLKRSLDTCELLILDELGYVPFQKQGSELLFHIIADCYERKSVMVTSNLEFGQWNRVFGDNRLTAALVDRLVHHAHILAFTGESYRLRNALSAIQPSSASGLEP not soluble
MSLAYQSEYALENEMMNQLEQLGYERVTIRDNKQLLDNFRTILNERHADKLEGNPLTDKEFQRLLTMIDGKSIFESARILRDKLPLRRDDESEIYLSFLDTKSWCKNKFQVTNQVSVEDTYKARYDVTILINGLPLVQVELKRRGIDINEAFNQVKRYRKQNYTGLFRYIQMFIISNGVETRYFSNNDSELLKSHMFYWSDKQNNRINTLQSFAESFMRPCQLAKMISEGHHHHHH soluble
MAHHHHHHMVELTEEEAMNFLNIALGEAEKSLQKELKEMPIFCLLINEEKKIISSSYNYTNESKNGSRHSELIAIDKYIYDGNYEQMKNLNLIKCYNNNENSIEKSIQDYFVSLDEKKNSELKINNYENINDKYMNEKYNKIQERINNLKKCCIVVTCEPCIMCVYALKLIGIKNIYFCCLNERFGGCGSVLSLHKKYEDINVHYIEHPECSEKSINLMKAFYKAGNPSAPEEKRKRPIS not soluble
MGSDKIHHHHHHLRTNTPTFINIRNSYKIKTIMHFHLSGNAASDLKIVRFEDFSGSADAFRQHWYVHRVTMQRRKHVIVMEESTRYALLFCRVTQPFFKNFPEFFADTLWRHIVSLCAVPTARFGSIQAMTTDMCSENIYHKGLNRSVQAHIRDSFLTLECYLLHEPPINLARQEDVFQMNIRINETPRTRYGEKNYIWSLREFQRLWCEHLGVAAVRG not soluble

// sample MGSDKIHHHHHHMNAQIKIINTANGYMALCQDTPEDITPAWFSVDFWREKSAVVGSSKGRYTTWFVAFEHSHWVLRHYWRGGMMEKFSKDAYFYTGLENTRAMGELRLLDALYREQFAVPKPIAANIVRDGLFYRADIIIERVDGAEDLVAKLTKGTMTQAQWHALGATIAQFHRRGVYHADLNAKNILWQPQQTDSAQERFYLIDFDRGELKTPNAKWQKANLDRLLRSFNKEQGKQPTLAFTPANWAALLEGYHAVVPKV , its soluble on expression in E. coli was not soluble
